# Test system: ribosomal DNA (rDNA)
# assay_method_text: Mitochondrial COXII DNA and ribosomal DNA by real time PCR, HepG2
# Assay type: cell-based, human
# study_conditions: human
observation_type: CC90 at 14 days (µM)
Numbers only, in µM.

Ask: So what's the measured CC90 at 14 days for this one? COc1nc(N)nc2c1ncn2[C@@H]1O[C@H](COP(=O)(N[C@@H](C)C(=O)OCC(C)(C)C)Oc2cccc3ccccc23)[C@@H](O)[C@@]1(C)O (stereo partly shown) [INX-08189]
Result: 0.75

----------
# Test system: HepG2 cells
# assay_method_text: Mitochondrial COXII DNA and ribosomal DNA by real time PCR, HepG2
# Format: cell-based, human
# study_conditions: read-out: CC90 mtDNA; HepG2 cells, fourteen days
observation_type: CC90

Ask: Lab request: please report CC90 under test system HepG2 cells for COc1nc(N)nc2c1ncn2[C@@H]1O[C@H](COP(=O)(N[C@@H](C)C(=O)OC(C)C)Oc2ccccc2)[C@@H](O)[C@@]1(C)F (stereo partly shown)
Result: > 100 µM
